src = PubChem BioAssay (NCATS)

# Experiment Summary: Counterscreen qHTS for small molecule stabilizers of the endoplasmic reticulum resident proteome: GLuc-NoTag assay (AID 1508627)
# Condition Info: Gaussia luciferase NoTag secretion counterscreen, luminescence, thapsigargin 100 nM for final 4 h; series mostly up to 76.4 µM
Inconclusive results are not listed. Activity calls are given as the source filed them. Calls come from the whole dose curve; as a rule, active = well fitted inhibition curve with a large enough effect; inconclusive = small, poorly fitted or top-dose-only effect; inactive = no such curve, though single readings can be large or run the other way.
Assign a class; possible classes are active, inactive

Before answering, review these 4 worked examples.
Molecule	Group Label
O=c1ccn([C@@H]2O[C@H](CO)[C@H](O)[C@H]2O)c(=O)[nH]1	inactive
O=C1c2ccccc2-[n+]2ccc3c([nH]c4ccccc43)c21	active
CN(C)CCC(c1ccccc1)c1ccccn1 (stereo not given)	inactive
C=C1C(=O)OC2C=C(C)CCC=C(C)CCC12 (stereo not given)	inactive

# ---- query molecule ----
Exercise: Hi, sorry to bother you, what did the test record for "CC[C@H]1OC(=O)[C@H](C)[C@@H](O[C@H]2C[C@@](C)(OC)[C@@H](O)[C@H](C)O2)[C@H](C)[C@@H](O[C@@H]2O[C@H](C)C[C@H](N(C)C)[C@@H]2O)[C@](C)(O)C[C@@H](C)CN(C)[C@H](C)[C@@H](O)[C@]1(C)O" ?
Key: inactive

====

# Experiment Summary: Cell Viability - Renal Proximal Tubule (AID 545);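 note: cells exposed to compound for 40 hours; nearly all actives have a fitted effect of over 40% in size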
# Condition Info: renal proximal tubule cells viability, primary cells of rat origin
Inconclusive results are not listed. Activity calls are given as the source filed them. Calls follow the shape of the dose curve; as a rule, active = well fitted cell-killing curve with a large enough effect; inconclusive = small, poorly fitted or top-dose-only effect; inactive = flat fitted curve, though single readings scatter.
Parameter Measured: outcome

                          substance_smiles  parameter_measured  test_result
0  O=c1c(O)c(-c2ccc(O)cc2)oc2cc(O)cc(O)c12             outcome     inactive
1    CCCCC1C(=O)N(c2ccccc2)N(c2ccccc2)C1=O             outcome     inactive
2   O=c1[nH]cnc2c1ncn2[C@H]1CC[C@@H](CO)O1             outcome     inactive

====

# Experiment Summary: Quantitative High-Throughput drug screen in 47 multiple myeloma cell lines against the NCATS MIPE library collection: PE2_PLB cell viability assay (AID 1919869); note: nearly all actives have a fitted effect of over 35% in size
# Condition Info: PE2_PLB myeloma cells viability, ATP luminescence, 48 h; series mostly up to 45.8 µM
# From the text: PI: Beverly A. Mock Ph.D. Laboratory of Cancer Biology and Genetics, Center for Cancer Research, National Cancer Institute, National Institute of Health, Bethesda, Maryland […] 5; Detector; 425V; Luminescence; Viewlux PerkinElmer. […] 1. […] Briefly, the corresponding myeloma cell lines were screened in 1,536-well plates with 500 cells, 5-uL per well for inhibition of cell viability (assessed by measuring ATP levels with CellTiterGlo). […]
Results filed as inconclusive are left out. Calls of active or inactive are those of the source. Calls follow the shape of the dose curve; as a rule, active = well fitted cell-killing curve with a large enough effect; inconclusive = small, poorly fitted or top-dose-only effect, or effect the other way; inactive = no such curve, though single readings can be large or run the other way.
Assign a class; possible classes are active, inactive

Before answering, review these 5 worked examples.
Molecule	Group Label
CC[C@]1(O)C[C@@H]2CN(CCc3c([nH]c4ccccc34)[C@@](C(=O)OC)(c3cc4c(cc3OC)N(C=O)[C@@H]3C45CCN4CC=C[C@](CC)([C@H]45)[C@@H](OC(C)=O)[C@]3(O)C(=O)OC)C2)C1 (stereo partly drawn)	active
COc1ccc(Cc2ccc(NC(N)=O)cc2)cc1-c1cccc(Cl)c1	inactive
COc1cc2ncnc(Nc3ccc(F)c(Cl)c3)c2cc1OCCCN1CCOCC1	active
O=C(O)[C@H]1O[C@H](Oc2cc3oc(-c4ccccc4)cc(=O)c3c(O)c2O)[C@H](O)[C@@H](O)[C@H]1O	inactive
CC(C)C(=O)Nc1ncc(-c2cc(C(F)F)nn2-c2c(Cl)cccc2Cl)s1	active

Exercise: Hi, sorry to bother you, what did the test record for "CCn1c(C(=O)N(C2CC2)C2CC2)cc2c3c(ncn3C)c(Nc3cc(C)n(C)n3)nc21" ?
Key: active

Exercise: Hi, sorry to bother you, what did the test record for "O=C(CCc1ccc(O)cc1)c1c(O)cc(O)cc1O[C@@H]1O[C@H](CO)[C@H](O)[C@H](O)[C@H]1O" ?
Key: inactive

Exercise: Hi, sorry to bother you, what did the test record for "OC[C@H]1O[C@@H](Oc2cc(O)cc(C=Cc3ccc(O)cc3)c2)[C@H](O)[C@@H](O)[C@H]1O" ?
Key: inactive
